Where do these numbers come from? They come from patent US11739098B2.

Reported pIC50 by item:
# System: human TLR7 (Homo sapiens, UniProt Q9NYK1)
# Sequence (Q9NYK1 27-1049): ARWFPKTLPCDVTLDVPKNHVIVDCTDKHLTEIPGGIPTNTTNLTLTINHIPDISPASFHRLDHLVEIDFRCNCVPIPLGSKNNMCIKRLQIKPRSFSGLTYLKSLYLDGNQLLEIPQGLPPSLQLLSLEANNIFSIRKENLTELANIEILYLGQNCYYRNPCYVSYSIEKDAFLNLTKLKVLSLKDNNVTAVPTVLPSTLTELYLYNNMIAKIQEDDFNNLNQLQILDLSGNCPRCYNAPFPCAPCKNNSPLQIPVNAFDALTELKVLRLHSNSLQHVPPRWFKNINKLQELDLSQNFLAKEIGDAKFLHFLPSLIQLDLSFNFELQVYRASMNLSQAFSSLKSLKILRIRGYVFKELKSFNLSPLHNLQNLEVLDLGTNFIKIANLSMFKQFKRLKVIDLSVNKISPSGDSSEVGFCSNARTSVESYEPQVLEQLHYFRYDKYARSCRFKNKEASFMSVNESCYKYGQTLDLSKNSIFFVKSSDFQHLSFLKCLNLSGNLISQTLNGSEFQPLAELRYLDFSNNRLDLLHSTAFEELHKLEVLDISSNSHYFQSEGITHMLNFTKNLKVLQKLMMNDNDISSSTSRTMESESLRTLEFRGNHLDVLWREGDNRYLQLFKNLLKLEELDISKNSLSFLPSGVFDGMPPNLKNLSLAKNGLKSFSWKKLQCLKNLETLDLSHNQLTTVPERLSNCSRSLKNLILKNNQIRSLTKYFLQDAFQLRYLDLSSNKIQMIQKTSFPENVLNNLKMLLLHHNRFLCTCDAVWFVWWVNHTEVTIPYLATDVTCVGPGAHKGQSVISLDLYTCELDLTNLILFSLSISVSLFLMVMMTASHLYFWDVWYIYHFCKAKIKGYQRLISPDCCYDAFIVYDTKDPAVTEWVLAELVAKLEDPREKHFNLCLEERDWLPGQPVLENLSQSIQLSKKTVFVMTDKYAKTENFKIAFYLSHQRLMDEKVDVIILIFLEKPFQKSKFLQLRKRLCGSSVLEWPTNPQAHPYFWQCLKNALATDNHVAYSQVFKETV
# Experimental Protocol: TLR7 inhibition reporter assay (HEK-Blue cells, SEAP reporter, gardiquimod stimulation)
# Recorded Conditions: HEK-Blue cells overexpressing human TLR7, SEAP reporter, gardiquimod 7.5 μM
pIC50: −log10 of the molar value.
Assay Readout: pIC50

INSERT INTO assay_data (molecule, assay_readout, assay_result) VALUES
  ('Cc1c(-c2ccnc3c2ccn3C)[nH]c2ccc(C3CCN(C4CCN(C(C)C)CC4)CC3)cc12 [Example 844]', 'pIC50', '4.30 to 6.00'),
  ('CCc1c(C)c(-c2[nH]c3ccc(C4CCN(CC(=O)NC)CC4)cc3c2C(C)C)cn2ccnc12 [Example 418]', 'pIC50', '> 7.00'),
  ('CC(=O)N1CCC[C@H]1C(=O)N1CCC(c2ccc3[nH]c(-c4ccnc5[nH]ncc45)c(C(C)C)c3c2)CC1 [Example 566]', 'pIC50', '6.00 to 7.00'),
  ('CCc1c(-c2n[nH]c3ncccc23)[nH]c2ccc(C3CCNCC3)cc12 [Example 244]', 'pIC50', '6.00 to 7.00'),
  ('Cc1cc2cc(-c3[nH]c4ccc(C5CCNCC5)cc4c3C(C)C)cc(C)n2n1 [Example 142]', 'pIC50', '> 7.00'),
  ('CCc1c[nH]c2nccc(-c3[nH]c4ccc(C5CCNCC5)cc4c3C)c12 [Example 219]', 'pIC50', '6.00 to 7.00'),
  ('Cc1cc(-c2[nH]c3ccc(C4CCN(C(=O)CN(C)C)CC4)cc3c2C(C)C)cn2nncc12 [Example 467]', 'pIC50', '6.00 to 7.00'),
  ('CNC(=O)CN1CCC(c2ccc3[nH]c(-c4cc(C)c5nn(C)cc5c4)c(C(C)C)c3c2)CC1 [Example 378]', 'pIC50', '> 7.00'),
  ('Cc1nc2cc(-c3[nH]c4ccc(C5CCN(CC(=O)N(C)C)CC5)cc4c3C(C)C)ccn2n1 [Example 326]', 'pIC50', '> 7.00'),
  ('CNc1c[nH]c2nccc(-c3[nH]c4ccc(C5CCNCC5)cc4c3C)c12 [Example 210]', 'pIC50', '4.30 to 6.00'),
  ('CNC(=O)CN1CCC(c2ccc3[nH]c(-c4ccnc5[nH]ncc45)c(CC(F)F)c3c2)CC1 [Example 387]', 'pIC50', '6.00 to 7.00'),
  ('CCOc1cc(-c2[nH]c3ccc(C4CCN(CC(=O)NC)CC4)cc3c2C(C)C)cc2nc(C)nn12 [Example 349]', 'pIC50', '> 7.00'),
  ('CCCN1CCC(c2ccc3[nH]c(-c4cc(C)c5ncn(C)c5c4)c(C(C)C)c3c2)CC1 [Example 954]', 'pIC50', '> 7.00'),
  ('CCc1c(-c2ccnc3[nH]nc(C)c23)[nH]c2ccc(C3CCNCC3)cc12 [Example 226]', 'pIC50', '> 7.00'),
  ('CC(C)c1c(-c2ccnc3[nH]ncc23)[nH]c2ccc(C3CCN(C4CCN(C(C)C)CC4)CC3)cc12 [Example 821]', 'pIC50', '> 7.00'),
  ('CC(C)c1c(-c2ccc3nccn3c2)[nH]c2ccc(C3CCN(C(=O)[C@@H]4CCCNC4)CC3)cc12 [Example 639]', 'pIC50', '> 7.00'),
  ('CC(C)c1c(-c2ccnc3[nH]ncc23)[nH]c2ccc(C3CCN(Cc4cn5ccccc5n4)CC3)cc12 [Example 862]', 'pIC50', '> 7.00'),
  ('CC(C)c1c(-c2cn3ccnc3cc2C(F)(F)F)[nH]c2ccc(C3CCN(CC(=O)N(C)C)CC3)cc12 [Example 427]', 'pIC50', '6.00 to 7.00'),
  ('CC(C)c1c(-c2ccnc3[nH]ncc23)[nH]c2cc(C(F)(F)F)c(C3CCN(CC4CCN(C(C)C)C4)CC3)cc12 (stereo not shown) [Example 854]', 'pIC50', '> 7.00'),
  ('CC(C)c1c(-c2cnc3nn(C)cc3c2)[nH]c2ccc(C3CCN(C(=O)CN(C)C)CC3)cc12 [Example 505]', 'pIC50', '6.00 to 7.00'),
  ('CCc1c(-c2ccnc3[nH]ncc23)[nH]c2ccc(C3CCN(CC4(N)CC4)CC3)cc12 [Example 657]', 'pIC50', '6.00 to 7.00'),
  ('CNCC(=O)N1CCC(c2ccc3[nH]c(-c4cc(C)c5nccn5c4)c(C(C)C)c3c2)CC1 [Example 557]', 'pIC50', '> 7.00'),
  ('CCc1c(-c2ccnc3[nH]ccc23)[nH]c2ccc(C3CCN(C4CCN(CC(C)C)CC4)CC3)cc12 [Example 849]', 'pIC50', '6.00 to 7.00'),
  ('CNC(=O)CN1CCC(c2ccc3[nH]c(-c4ccn5nc(C)nc5c4)c(C(C)C)c3c2)CC1 [Example 331]', 'pIC50', '> 7.00'),
  ('CCc1c(-c2cccc3[nH]ncc23)[nH]c2ccc(C3CCNCC3)cc12 [Example 182]', 'pIC50', '4.30 to 6.00'),
  ('CC(C)c1c(-c2cc(F)c3nccn3c2)[nH]c2ccc(C3CCN(C(=O)C[C@@H](C)O)CC3)cc12 [Example 605]', 'pIC50', '> 7.00'),
  ('Cc1ncc(CN2CCC(c3ccc4[nH]c(-c5ccnc6[nH]ncc56)c(C(C)C)c4c3)CC2)[nH]1 [Example 869]', 'pIC50', '> 7.00'),
  ('Cc1c(-c2[nH]c3ccc(C4CCNCC4)cc3c2C(C)C)ccc2nnnn12 [Example 72]', 'pIC50', '6.00 to 7.00'),
  ('Cc1ccc(-c2[nH]c3ccc(C4CCN(C(=O)C[C@H](C)O)CC4)cc3c2C(C)C)c2ncnn12 [Example 599]', 'pIC50', '6.00 to 7.00'),
  ('CC(C)c1c(-c2cnc3ccnn3c2)[nH]c2ccc(C3CCN(C4COC4)CC3)cc12 [Example 713]', 'pIC50', '< 5.51'),
  ('CCN(C)CC(=O)N1CCC(c2ccc3[nH]c(-c4cc(C)c5nnnn5c4)c(C(C)C)c3c2)CC1 [Example 475]', 'pIC50', '> 7.00');
